- System: MRP1 cells, doxorubicin viability shift, 10 uM compound
- experimental.details: viability protection against doxorubicin, MRP-1 line – cell-based, doxorubicin EC50 shift, dose response (AID 844)
Active and inactive are the calls of the source. How the calls were made is not given here.
Give your call using only these classes: active, inactive

Cc1ccc(C2CC(C(F)(F)F)n3nc(C(=O)NCc4c(C)nn(C)c4C)c(Cl)c3N2)cc1 (stereo not given) | inactive
N#CC1=C(N)SC(N)=C(C#N)C1c1cccc(O)c1 | inactive
O=C(c1ccc(COc2ccc(Cl)cc2)o1)N1N=C(C(F)F)CC1(O)C(F)F (stereo not given) | inactive
COC(=O)C(CC(C)C)NC(=O)CSc1nc(-c2ccccc2)c(C#N)c(=O)[nH]1 (stereo not given) | active

Now examine the next entry.
Returns: the outcome recorded for CC(NC(=O)CN1CCN(Cc2ccc(Cl)cc2)C1=O)c1ccc2c(c1)OCCO2 (stereo not given) in this assay.
inactive

* * *

- Tested on: MRP1 cells, doxorubicin viability shift, 10 uM compound
- experimental.details: viability protection against doxorubicin, MRP-1 line – cell-based, doxorubicin EC50 shift, dose response (AID 844)
observation.type: fold increase in Dox EC50
The answer should be a number; do not append a unit.

Cc1cc(C)c(S(C)(=O)=O)c(Sc2ccc(Cl)cc2)n1 | 0.81

In plain terms, `O=C(Nc1ccn(Cc2c(F)c(F)cc(F)c2F)n1)c1ccc(COc2ccc(Cl)cc2Cl)o1` has a documented fold increase in Dox EC50 of 1.01

Measured fold increase in Dox EC50, O=C(Nc1nnc(COc2ccc(Cl)cc2)s1)C1CCCO1 (stereo unspecified) : 1.2

* * *

fold increase in Dox EC50 for assorted compounds
- Test system: MRP1 cells, doxorubicin viability shift, 10 uM compound
- experimental.details: viability protection against doxorubicin, MRP-1 line – cell-based, doxorubicin EC50 shift, dose response (AID 844)
Activity calls are given as the source filed them. The rule behind the calls is not given here.

Reference set (5 entries):
COc1ccc(CN=C2NC(=O)CC(C(=O)Nc3ccc(F)cc3)S2)cc1 (stereo not drawn) | 1.01 (inactive)
Cc1cc(Br)ccc1NC(=O)CNC(=O)CN1C(=O)NC2(CCCCCC2)C1=O | 1.34 (inactive)
O=C(NCc1ccc(Cl)cc1)C(=O)NCC1OCCN1C(=O)c1cccs1 (stereo not drawn) | 1.33 (inactive)
Nn1c(SCC(=O)Nc2ccccc2F)nc2ccccc2c1=O | 1.41 (inactive)
C=CCc1c(C)nc(-c2ccccc2)nc1N/N=C(\C)c1ccccc1 | 0.43 (inactive)

The value of fold increase in Dox EC50 measured for the compound `CCOc1ccc(Cn2nnc(C(=O)NCCc3ccccc3)c2N)cc1` turned out to be 1.05 (inactive)

Sample `O=C(Nc1ccn(Cc2ccccc2F)n1)c1ccc(COc2ccc(Cl)cc2Cl)o1` ; fold increase in Dox EC50 observed: 0.95 (inactive)

fold increase in Dox EC50 reading for `C=CCSC1=NC(=O)/C(=C/c2cccs2)S1` : 1.13 (inactive)

* * *

- Test system: MRP1 cells, doxorubicin viability shift, 10 uM compound
- experimental.details: viability protection against doxorubicin, MRP-1 line – cell-based, doxorubicin EC50 shift, dose response (AID 844)
Give met when the value for fold increase in Dox EC50 is at least 0.9. Give not met when it is less.

Consider the worked cases shown below.
COc1ccccc1CNC(=O)Cn1cc2c(n1)CCCC2 | met
Cc1cccc(-c2cc3nc(C)cc(N4CC(C)CC(C)C4)n3n2)c1 (stereo unspecified) | not met
O=C(Nc1nc(-c2cccs2)c(-c2cccs2)s1)C1(c2ccccc2)CC1 | not met
O=C(Cn1c(COc2ccc(Cl)cc2)nc2ccccc21)NCC(F)(F)F | not met
O=C(Nc1ncc(Cc2ccccc2Cl)s1)c1ccc(-c2cccc([N+](=O)[O-])c2)o1 | not met
Oc1c(C(c2cccs2)N2CCN(c3ccccc3)CC2)sc2ncnn12 (stereo unspecified) | met
CC(=O)N1CCN=C1SCc1ccc(C)cc1 | not met
Cc1c(NC(=O)c2ccccc2NS(=O)(=O)c2ccc(Br)cc2)c(=O)n(-c2ccccc2)n1C | not met

Is it the case that `CC(C)Oc1ccc(-c2nn(-c3ccccc3)cc2/C=c2\sc3ncnn3c2=O)cc1` has fold increase in Dox EC50 reaching or exceeding 0.9?
not met

Given `COc1ccc(NC(=O)CCCC2CCCCC2)cc1S(=O)(=O)N1CCCCC1` , state whether its fold increase in Dox EC50 is at least 0.9.
met

Please check the record `CNc1oc(-c2ccc(C)cc2)nc1P(=O)(c1ccccc1)c1ccccc1` and state if its fold increase in Dox EC50 is at or above 0.9.
met

In plain terms: is recorded fold increase in Dox EC50 at least 0.9 for `CCOC(=O)c1nnc(-c2ccccc2)nc1Oc1ccccc1Cl` ?
met

For this molecule, is measured fold increase in Dox EC50 0.9 or higher? `C[C@]12C=CC(=O)C=C1CC[C@H]1[C@@H]3C[C@@H](O)[C@](O)(C(=O)CO)[C@@]3(C)C[C@H](O)[C@@]12F`
met

Quick check, fold increase in Dox EC50 >= 0.9? `O=C(c1cnn2c(C(F)(F)F)cc(-c3cccs3)nc12)N1CCN(C(c2ccccc2)c2ccccc2)CC1`
not met

# bool: fold increase in Dox EC50 of `Cc1cccc(C)c1N=Cc1c(O)n(-c2nccs2)c(=O)c2ccccc12` >= 0.9
not met

Does the molecule CCc1nnc(NC(=O)C2CCCN2S(=O)(=O)c2ccc(F)cc2)s1 (stereo unspecified) have recorded fold increase in Dox EC50 that is 0.9 or more?
met

Answer whether fold increase in Dox EC50 of `Cn1c(N)c(C(=O)COC(=O)c2cc(C3CC3)nc3ccccc23)c(=O)n(Cc2ccccc2)c1=O` is greater than or equal to 0.9.
met

Determine whether measured fold increase in Dox EC50 meets or exceeds 0.9 for `N#CCCNC(=O)Cn1c(COc2ccc(Cl)cc2)nc2ccccc21`
not met

Decide: is the reported value of fold increase in Dox EC50 for CCOC(=O)C1=C(C)Nc2sc(C(=O)c3ccc(OC)cc3)c(N)c2C1c1ccc(C(=O)OC)cc1 (stereo unspecified) equal to or greater than 0.9?
not met

Could you verify whether the entry `CCN(C(=O)c1cc2cc3ccc(C)cc3nc2o1)c1ccc(OC)cc1` shows fold increase in Dox EC50 of no less than 0.9?
not met

Given the entry CC1(C)CC(=O)C2=C(C1)N=C1SCCC(=O)N1C2c1ccc(C(F)(F)F)cc1 (stereo unspecified) , answer whether its fold increase in Dox EC50 meets or surpasses 0.9.
met
